Reference source for all entries: PubChem BioAssay (NCATS)

Tested on: HaCat
Assay: Cytotoxic Profiling of Annotated Libraries Using Quantitative High-Throughput Screening (AID 1296008); also: nearly all actives have a fitted effect of over 60% in size
Details: Five cell lines viability, CellTiter-Glo ATP luminescence, 48-72 h
Records with an inconclusive call do not appear. Calls of active or inactive are those of the source. Calls follow the shape of the dose curve; as a rule, active = well fitted inhibition curve with a large enough effect; inconclusive = small, poorly fitted or top-dose-only effect; inactive = flat fitted curve, though single readings scatter.
Hi! Could you answer with just one of these? 1 for active, -1 for inactive

molecule: CC1(C)O[C@@H]2C[C@H]3[C@@H]4CCC5=CC(=O)C=C[C@]5(C)[C@@H]4[C@@H](O)C[C@]3(C)[C@]2(C(=O)CO)O1
category: -1

Task: Name the outcome recorded for O=C1NC(O)CCN1[C@@H]1O[C@H](CO)[C@H](O)[C@H]1O (stereo not given in full) in the assay.
Result: -1

Task: Which result was noted for this molecule in the test: NC(=O)c1cccc(-c2cccc(OC(=O)NC3CCCCC3)c2)c1
Result: -1

----------
Test: Quantitative High-Throughput drug screen in 47 multiple myeloma cell lines against the NCATS MIPE library collection: U266_ATCC cell viability assay (AID 1919864); also: nearly all actives have a fitted effect of over 35% in size
Conditions: U266 myeloma viability, CellTiter-Glo ATP luminescence, 48 h; series mostly up to 45.8 µM
Records with an inconclusive call do not appear. The source made the active and inactive calls. Calls follow the shape of the dose curve; as a rule, active = well fitted cell-killing curve with a large enough effect; inconclusive = small, poorly fitted or top-dose-only effect, or effect the other way; inactive = no such curve, though single readings can be large or run the other way. Residues, ends and D or L forms follow the SMILES beside them. *: point of attachment. Cbz = O=C(OCc1ccccc1)*
I would appreciate it if you answered using one of these outcomes: active, inactive

molecule: Nc1ccc(C(=O)Nc2cccc(-c3nc(N4CCOCC4)c4oc5ncccc5c4n3)c2)cn1
category: active

molecule: Cn1cnc2c(F)c(Nc3ccc(Br)cc3F)c(C(=O)NOCCO)cc21
category: inactive

molecule: CC(C)C[C@@H](C=O)NC(=O)[C@H](CC(C)C)NC(=O)[C@H](CC(C)C)NC(=O)OCc1ccccc1 (Cbz-Leu-Leu-Leu-aldehyde)
category: active

molecule: CC(C)OC(=O)[C@H](C)N[P@](=O)(OC[C@H]1O[C@@H](n2ccc(=O)[nH]c2=O)[C@](C)(F)[C@H]1O)Oc1ccccc1
category: inactive

molecule: CC(=O)[C@]1(O)Cc2c(O)c3c(c(O)c2[C@@H](O[C@H]2C[C@H](N)[C@@H](O)[C@H](C)O2)C1)C(=O)c1ccccc1C3=O
category: active

molecule: C=CC(=O)Nc1ccc2ncnc(Nc3ccc(OCc4cccc(F)c4)c(Cl)c3)c2c1
category: active

molecule: O=C(C=CC=Cc1ccc2c(c1)OCO2)N1CCCCC1
category: inactive

molecule: Cc1cc(-c2nnc3n2CCCCC3)c(C)n1-c1ccccc1
category: inactive

Task: Hello, I am checking results. What call was entered for CS[C@H]1SC[C@@H]2C(=O)N(C)[C@H](C(C)C)C(=O)OC[C@H](NC(=O)c3cnc4ccccc4n3)C(=O)N[C@H](C)C(=O)N(C)[C@@H]1C(=O)N(C)[C@H](C(C)C)C(=O)OC[C@H](NC(=O)c1cnc3ccccc3n1)C(=O)N[C@H](C)C(=O)N2C ?
Result: active

Task: Given Cc1ccc([N+](=O)[O-])cc1S(=O)(=O)N(C)N=Cc1cnc2ccc(Br)cn12 , state the outcome it received in this test.
Result: active

Task: What did the test return for COc1cc2c(Nc3ccc(Cl)c(Cl)c3F)ncnc2cc1OCC1C[C@@H]2CN(C)C[C@H]2C1 ?
Result: active

Task: Just curious, what result did COc1cc(C(C)C)c(Oc2cnc(NC(CO)CO)nc2N)cc1I get here?
Result: active

Task: For C=CC[C@@H]1C=C(C)C[C@H](C)C[C@H](OC)[C@H]2O[C@@](O)(C(=O)C(=O)N3CCCC[C@H]3C(=O)O[C@H](C(C)=C[C@@H]3CC[C@H](O)[C@H](OC)C3)[C@@H](C)[C@@H](O)CC1=O)[C@@H](C)C[C@@H]2OC , which call appears in the assay record?
Result: active

Task: # outcome recorded in this test, key = COc1ccc2c(c1OC)C(=O)OC2[C@H]1c2c(cc3c(c2OC)OCO3)CCN1C (some centres not stated)
Result: active

Task: Would you mind telling me which call this test gave CNC(=O)c1cccc(-c2ccc3c(N4CCOC[C@H]4C)nc(N4CCOC[C@H]4C)nc3n2)c1 ?
Result: active

Task: For CCCNC(=O)[C@H]1O[C@H]1C(=O)N[C@H](C(=O)N1CCC[C@@H]1C(=O)OC)C(C)CC (some centres not stated) , which call appears in the assay record?
Result: active

Task: Assay outcome for NC(=O)c1cccc(-c2cccc(OC(=O)NC3CCCCC3)c2)c1 : what was it?
Result: inactive

----------
Experiment: qHTS of pediatric cancer cell lines to identify multiple opportunities for drug repurposing: Confirmatory screen for MG 63 (6-TG R) cells (AID 1347119); also: nearly all actives have a fitted effect of over 55% in size; also: potency is read from the fitted curve at half-maximal effect
Settings: MG-63 (6-TG resistant) osteosarcoma viability; series mostly up to 45.9 µM
Records with an inconclusive call do not appear. Calls of active or inactive are those of the source. The call rests on the fitted dose curve; in most records, active means well fitted cell-killing curve with a large enough effect; inconclusive means small, poorly fitted or top-dose-only effect, or effect the other way; inactive means no such curve, though single readings can be large or run the other way. Non-standard residues stand in square brackets, D forms with d. Residues, ends and D or L forms follow the SMILES beside them. *: point of attachment. Nva = CCC[C@H](N)C(=O)O; Cbz = O=C(OCc1ccccc1)*
outcome measure: Potency

Some compounds with known Potency results, for comparison:
compound: CN(C)c1ccc(C(=O)NCCCCCCC(=O)NO)cc1
Potency: 1.47 µM (active)

compound: CC(C)NC[C@@H](C(=O)N1CCN(c2ncnc3c2[C@H](C)C[C@H]3O)CC1)c1ccc(Cl)cc1
Potency: 11.7 µM (active)

compound: COc1ccc(C(C)=O)c(O)c1
Potency: inactive

compound: CCC[C@@H](C=O)NC(=O)[C@H](CC(C)C)NC(=O)[C@H](CC(C)C)NC(=O)OCc1ccccc1 (Cbz-Leu-Leu-[Nva]-aldehyde)
Potency: 0.827 µM (active)

Give me Potency for each of these compounds, listed below.
1. COc1ccc(C[C@@H](C)[C@@H](C)Cc2ccc(OC)c(OC)c2)cc1OC
2. CS(=O)(=O)N1CCc2c(-c3cnc(N)nc3)nc(N3CCOCC3)nc21
3. CNC(=O)Nc1ccc(-c2nc(N3CC4CCC(C3)O4)c3cnn(C4CCC5(CC4)OCCO5)c3n2)cc1
4. Cn1c(Nc2ccc(C(F)(F)F)cc2)nc2cc(Oc3ccnc(-c4ncc(C(F)(F)F)[nH]4)c3)ccc21
5. Cc1ncc(-c2ccnc(Nc3ccc(S(C)(=O)=O)cc3)n2)n1C(C)C
6. C=CC(=O)Nc1cccc(Nc2nc(NC3CCC(N(C)C)CC3)nc3c2ncn3C(C)C)c1 (stereo unspecified)
7. C#CCC(Cc1cnc2nc(N)nc(N)c2n1)c1ccc(C(=O)N[C@@H](CCC(=O)O)C(=O)O)cc1 (stereo partly specified)

Result:
1. 9.27 µM (active)
2. 0.585 µM (active)
3. 0.0329 µM (active)
4. 13.1 µM (active)
5. inactive
6. 3.69 µM (active)
7. inactive

----------
Assay: Quantitative High-Throughput drug screen in 47 multiple myeloma cell lines against the NCATS MIPE library collection: FR4_PLB cell viability assay (AID 1918924; also: nearly all actives have a fitted effect of over 35% in size)
Conditions: FR4_PLB myeloma cells viability, CellTiter-Glo ATP, 48 h; series mostly up to 45.8 µM
Excerpt: PI: Beverly A. Mock Ph.D. Laboratory of Cancer Biology and Genetics, Center for Cancer Research, National Cancer Institute, National Institute of Health, Bethesda, Maryland […] 5; Detector; 425V; Luminescence; Viewlux PerkinElmer. […] 1. […] Briefly, the corresponding myeloma cell lines were screened in 1,536-well plates with 500 cells, 5-uL per well for inhibition of cell viability (assessed by measuring ATP levels with CellTiterGlo). […]
Records with an inconclusive call do not appear. The source made the active and inactive calls. Calls come from the whole dose curve; as a rule, active = well fitted cell-killing curve with a large enough effect; inconclusive = small, poorly fitted or top-dose-only effect, or effect the other way; inactive = no such curve, though single readings can be large or run the other way.
Form entry, call: pick from 1 for active, -1 for inactive

Worked examples, 8 compounds total:
compound: c1cc(CN2CCCNCCNCCCNCC2)ccc1CN1CCCNCCNCCCNCC1
category: -1

compound: O=C1NCCc2[nH]c(-c3ccncc3)cc21
category: 1

compound: CC(=O)N1CCN(c2ccc(OCc3nn(C)c(C)c3-c3cccc4c(CCCOc5cccc6ccccc56)c(C(=O)O)n(Cc5cccnc5)c34)cc2)CC1
category: 1

compound: CC(=O)N[C@@H]1[C@H](O[C@@H]2c3ccc(c(Cl)c3)Oc3cc4cc(c3O[C@H]3O[C@H](CO)[C@@H](O)[C@H](O)[C@H]3NC(=O)CCCCCCCC(C)C)Oc3ccc(cc3Cl)C[C@H]3NC(=O)[C@H](N)c5ccc(O)c(c5)Oc5cc(O)cc(c5)[C@H](NC3=O)C(=O)N[C@H]4C(=O)N[C@H]3C(=O)N[C@@H]2C(=O)N[C@@H](C(=O)O)c2cc(O)cc(O[C@H]4O[C@H](CO)[C@@H](O)[C@H](O)[C@H]4O)c2-c2cc3ccc2O)O[C@H](CO)[C@@H](O)[C@@H]1O
category: -1

compound: NC1=N[C@H]2[C@H](CS[C@H]2CCCCC(=O)O)N1
category: -1

compound: CCCc1nc(C(C)(C)O)c(C(=O)O)n1Cc1ccc(-c2ccccc2-c2nn[nH]n2)cc1
category: -1

compound: CC1(C)CC(O)CC(C)(C)N1[O]
category: -1

compound: CCCCCCCN(CC)CCCC(O)c1ccc(NS(C)(=O)=O)cc1 (centres undefined)
category: -1

Task: Please share the test call associated with CC(C)C[C@H](NC(=O)[C@@H](NC(=O)c1cccc(-c2ccccc2)n1)[C@@H](C)O)B(O)O .
Result: 1
